Tested on: LTB4 production in murine blood (LTA4H)
Test: LTB4 production by calcium ionophore-stimulated murine blood for LTA4H inhibitor activity
Assay type: cell-based, CD-1 mice
Conditions: Mus musculus; murine blood diluted 1 in 15, A23187 stimulated; single determination or average; mark after value = form tested: ′ free base, ″ hydrochloride, ^ formate; read-out: IC50
Known IC50 of a selection of compounds
observed_property: IC50 (nM)

[[record]]
query_smiles = "c1ccc2oc(Oc3ccc4c(CN5CCCCC5)c[nH]c4c3)nc2c1"
value_observed = 152

[[record]]
query_smiles = "NC(=O)N1C[C@H]2CC[C@@H](C1)N2Cc1coc2cc(Oc3nc4ncccc4s3)ccc12"
value_observed = 34

[[record]]
query_smiles = "NC(=O)C1CCN(Cc2cc3ccc(Oc4nc5ncccc5s4)cc3o2)CC1"
value_observed = 55

[[record]]
query_smiles = "CC(=O)N1CC2CC(CN(Cc3coc4cc(Oc5nc6ncccc6s5)ccc34)C2)C1"
value_observed = 110

[[record]]
query_smiles = "CC(=O)N[C@H]1C[C@H]2CC[C@@H](C1)N2Cc1c[nH]c2cc(Oc3nc4c(F)cccc4s3)ccc12"
value_observed = 66

[[record]]
query_smiles = "CC(=O)N1C[C@@H]2C[C@H]1CN2Cc1coc2cc(Oc3nc4ccccc4s3)ccc12"
value_observed = 230

[[record]]
query_smiles = "c1ccc2c(c1)CCN(Cc1c[nH]c3cc(Oc4nc5ccccc5s4)ccc13)C2"
value_observed = 476

[[record]]
query_smiles = "CC(=O)N1C[C@@H]2CC[C@H]1CN2Cc1coc2cc(Oc3nc4ncccc4s3)ccc12"
value_observed = 22


###

Molecular target: recombinant human LTA4 hydrolase (rhLTA4H) (Homo sapiens, UniProt P09960)
Construct: made in house; host or cells: Spodoptera frugiperda (Sf-9) cells, baculovirus (pFastBac1)
Sequence (P09960 1-611): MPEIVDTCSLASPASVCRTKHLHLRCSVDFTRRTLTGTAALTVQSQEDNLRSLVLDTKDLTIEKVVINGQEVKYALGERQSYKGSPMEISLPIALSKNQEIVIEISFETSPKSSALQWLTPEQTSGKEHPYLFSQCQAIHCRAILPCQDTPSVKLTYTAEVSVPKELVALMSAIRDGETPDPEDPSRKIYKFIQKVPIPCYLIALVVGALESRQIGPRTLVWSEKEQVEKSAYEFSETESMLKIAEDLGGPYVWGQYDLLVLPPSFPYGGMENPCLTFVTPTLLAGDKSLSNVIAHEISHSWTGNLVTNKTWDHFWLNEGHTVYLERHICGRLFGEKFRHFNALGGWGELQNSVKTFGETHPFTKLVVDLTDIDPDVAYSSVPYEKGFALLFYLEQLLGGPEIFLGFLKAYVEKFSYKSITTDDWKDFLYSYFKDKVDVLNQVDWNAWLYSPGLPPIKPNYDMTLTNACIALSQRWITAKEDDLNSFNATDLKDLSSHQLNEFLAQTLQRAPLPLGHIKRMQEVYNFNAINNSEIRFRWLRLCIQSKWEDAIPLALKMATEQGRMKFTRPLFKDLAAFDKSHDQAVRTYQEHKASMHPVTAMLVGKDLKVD
Assay: Recombinant human LTA4 hydrolase assay for LTA4 hydrolase inhibitor activity
Assay type: biochemical
Details: rhLTA4H, LTB4 by immunoassay; single determination or average of two or more; mark after value = form tested: ′ free base, ″ hydrochloride, ^ formate; read-out: IC50
pIC50: −log10 of the molar value. Where a name gives a salt, the structure may show the parent alone.
Known pIC50 of a selection of molecules
observed_property: pIC50

[[record]]
molecule = "O=C1CCCN1C1CCN(Cc2c[nH]c3cc(Oc4nc5ncccc5s4)ccc23)CC1"
value_observed = 8.70

[[record]]
molecule = "NC(=O)C1CCN(Cc2cc3ccc(Oc4nc5ncccc5s4)cc3o2)CC1"
value_observed = 7.36

[[record]]
molecule = "CC(=O)N[C@H]1C[C@H]2CC[C@@H](C1)N2C(=O)c1coc2cc(Oc3nc4ncccc4s3)ccc12"
value_observed = 7.72

[[record]]
molecule = "NC(=O)N1C[C@@H]2C[C@H]1CN2Cc1cc2ccc(Oc3nc4ncccc4s3)cc2o1"
value_observed = 6.93

[[record]]
molecule = "O=C1Cc2ccccc2N1Cc1coc2cc(Oc3nc4ncccc4s3)ccc12"
value_observed = 7.89

[[record]]
molecule = "O=C(O)C1CCN(Cc2coc3cc(Oc4nc5ccccc5s4)ccc23)CC1 [Example 248, formate]"
value_observed = 7.92

[[record]]
molecule = "COc1ccc(N2CCN(Cc3coc4cc(Oc5nc6ncccc6s5)ccc34)CC2)cc1 [Example 290, formate]"
value_observed = 7.40

[[record]]
molecule = "CN(CCC(=O)O)Cc1coc2cc(Oc3nc4ncccc4s3)ccc12 [Example 335, formate]"
value_observed = 8.30


###

Molecular target: recombinant human LTA4 hydrolase (rhLTA4H) (Homo sapiens, UniProt P09960)
Construct: made in house; host or cells: Spodoptera frugiperda (Sf-9) cells, baculovirus (pFastBac1)
Experiment: Recombinant human LTA4 hydrolase assay for LTA4 hydrolase inhibitor activity
Type: biochemical
Conditions: rhLTA4H, LTB4 by immunoassay; single determination or average of two or more; mark after value = form tested: ′ free base, ″ hydrochloride, ^ formate; read-out: IC50
Counter-ions that a name gives are not always drawn.
Known log10(IC50) of a selection of compounds
observed_property: log10(IC50) (log10 of the value in nM)

[[record]]
compound = "c1cnc2nc(Oc3ccc4c(CNC5CCCCC5)coc4c3)sc2c1 [Example 299]"
measured_target = "recombinant human LTA4 hydrolase (rhLTA4H) (Homo sapiens, UniProt P09960)"
value_observed = 1.20

[[record]]
compound = "CC(=O)N1CCCN(C(=O)c2coc3cc(Oc4nc5ncccc5s4)ccc23)CC1 [Example 372]"
measured_target = "recombinant human LTA4 hydrolase (rhLTA4H) (Homo sapiens, UniProt P09960)"
value_observed = 1.48

[[record]]
compound = "CC(=O)N1C[C@H]2C[C@@H]1CN2Cc1cc2ncc(Oc3nc4ncccc4s3)cc2o1 [Example 340, formate]"
measured_target = "recombinant human LTA4 hydrolase (rhLTA4H) (Homo sapiens, UniProt P09960)"
value_observed = 1.08

[[record]]
compound = "c1ccc2sc(Oc3ccc4cc(CN5CCCCC5)oc4c3)nc2c1 [Example 406]"
measured_target = "recombinant human LTA4 hydrolase (rhLTA4H) (Homo sapiens, UniProt P09960)"
value_observed = 2.69

[[record]]
compound = "O=C1CCCN1C1CCN(Cc2cc3ncc(Oc4nc5ncccc5s4)cc3o2)CC1 [Example 341]"
measured_target = "recombinant human LTA4 hydrolase (rhLTA4H) (Homo sapiens, UniProt P09960)"
value_observed = 2.67

[[record]]
compound = "CC(=O)N1C[C@@H]2C[C@H]1CN2Cc1cc2cc(Oc3nc4ncccc4s3)ccc2o1 [Example 95]"
measured_target = "recombinant human LTA4 hydrolase (rhLTA4H) (Homo sapiens, UniProt P09960)"
value_observed = 0.70

[[record]]
compound = "c1ccc2c(c1)CN(Cc1coc3cc(Oc4nc5ncccc5s4)ccc13)C2 [Example 331]"
measured_target = "recombinant human LTA4 hydrolase (rhLTA4H) (Homo sapiens, UniProt P09960)"
value_observed = 1.73

[[record]]
compound = "O=C(c1coc2cc(Oc3nc4ncccc4s3)ccc12)N1CCC(C(=O)N2CCCCC2)CC1 [Example 384]"
measured_target = "recombinant human LTA4 hydrolase (rhLTA4H) (Homo sapiens, UniProt P09960)"
value_observed = 1.08

[[record]]
compound = "CN(Cc1ccccc1)Cc1cc2cc(Oc3nc4ncccc4s3)ccc2o1 [Example 114]"
measured_target = "recombinant human LTA4 hydrolase (rhLTA4H) (Homo sapiens, UniProt P09960)"
value_observed = 1.18

[[record]]
compound = "CC(C)(C)C1CCN(Cc2coc3cc(Oc4nc5ncccc5s4)ccc23)CC1 [Example 302, formate]"
measured_target = "recombinant human LTA4 hydrolase (rhLTA4H) (Homo sapiens, UniProt P09960)"
value_observed = 1.30

[[record]]
compound = "CC(=O)N1[C@@H]2CC[C@H]1CN(Cc1coc3cc(Oc4nc5ncccc5s4)ccc13)C2 [Example 295]"
measured_target = "recombinant human LTA4 hydrolase (rhLTA4H) (Homo sapiens, UniProt P09960)"
value_observed = 0.60

[[record]]
compound = "CC(=O)N[C@H]1C[C@H]2CC[C@@H](C1)N2Cc1cc2ccc(Oc3nc4ccccc4s3)cc2s1 [Example 134]"
measured_target = "recombinant human LTA4 hydrolase (rhLTA4H) (Homo sapiens, UniProt P09960)"
value_observed = 1.63

[[record]]
compound = "c1cnc2nc(Oc3ccc4c(CN5CCC6CCCCC6C5)coc4c3)sc2c1 (centres unmarked) [Example 266, formate]"
measured_target = "recombinant human LTA4 hydrolase (rhLTA4H) (Homo sapiens, UniProt P09960)"
value_observed = 0.30

[[record]]
compound = "O=C1CCCN1C1CCN(Cc2coc3cc(Oc4nc5ncccc5s4)ccc23)CC1 [Example 215]"
measured_target = "recombinant human LTA4 hydrolase (rhLTA4H) (Homo sapiens, UniProt P09960)"
value_observed = 0.48

[[record]]
compound = "c1cnc2nc(Oc3ccc4c(CN5CCc6c(sc7ccccc67)C5)c[nH]c4c3)sc2c1 [Example 35]"
measured_target = "recombinant human LTA4 hydrolase (rhLTA4H) (Homo sapiens, UniProt P09960)"
value_observed = 1.53

[[record]]
compound = "NC(=O)N1C[C@H]2C[C@@H]1CN2Cc1cc2cc(Oc3nc4ncccc4s3)ccc2o1 [Example 101]"
measured_target = "recombinant human LTA4 hydrolase (rhLTA4H) (Homo sapiens, UniProt P09960)"
value_observed = 1.72

[[record]]
compound = "NC(=O)C1CCN(Cc2c[nH]c3cc(Oc4nc5ccccc5s4)cnc23)CC1 [Example 33]"
measured_target = "recombinant human LTA4 hydrolase (rhLTA4H) (Homo sapiens, UniProt P09960)"
value_observed = 1.62


Cited source for all entries: patent US8399465B2
